biological target: E3 ubiquitin-protein ligase XIAP (Homo sapiens) (UniProt P98170); test: XIAP binders, primary screen, biophysical, small-molecule microarray, fluorescence 635 nm (AID 1181); details: small-molecule microarray binding, higher = more signal;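 further: score merges 667 nm emission and signal to noise over triplicate slides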
Sequence (P98170 whole entry, looked up): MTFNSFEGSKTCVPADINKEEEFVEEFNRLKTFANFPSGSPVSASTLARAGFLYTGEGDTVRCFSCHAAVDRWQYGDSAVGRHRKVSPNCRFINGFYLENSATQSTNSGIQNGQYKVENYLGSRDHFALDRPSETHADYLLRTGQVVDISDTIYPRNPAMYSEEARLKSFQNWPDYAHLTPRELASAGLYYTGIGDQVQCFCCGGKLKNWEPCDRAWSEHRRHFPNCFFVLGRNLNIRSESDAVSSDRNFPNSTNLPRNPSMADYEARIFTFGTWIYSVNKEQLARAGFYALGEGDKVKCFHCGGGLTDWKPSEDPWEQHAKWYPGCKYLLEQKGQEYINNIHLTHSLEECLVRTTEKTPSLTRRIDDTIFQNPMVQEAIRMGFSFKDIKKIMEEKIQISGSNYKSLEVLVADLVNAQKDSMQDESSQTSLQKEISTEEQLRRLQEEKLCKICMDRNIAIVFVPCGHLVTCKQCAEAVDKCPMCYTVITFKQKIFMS
I'd be grateful if you could share measured composite z-score for these entries.
Numbers only.

molecule: C=CCNC(=O)[C@@H]1[C@H]2C(=O)O[C@H](c3ccccc3)[C@H](c3ccccc3)N2[C@H](c2ccccc2OCCO)[C@@]12C(=O)Nc1ccc(C#CC3=CCCCC3)cc12
quantity_measured: composite z-score
measured_number: 0.0593

molecule: O=C1[C@]2(CO)C=C(Br)[C@@H](C[C@@H]2c2ccccc2)[C@@]12CO2
quantity_measured: composite z-score
measured_number: -0.102

Would you mind giving composite z-score for every molecule in the list below?
1. O=C1c2ccccc2[C@@]2(Cc3ccccc3N(Cc3ccccc3)C2=O)[C@H](c2ccc(CO)cc2)N1C1CCCCC1
2. C=CCC(OC(C)=O)[C@@H]1[C@@H](N(Cc2cc3ccccc3o2)C(=O)c2ccc(C)cc2)c2cc(OCCCO)ccc2N1C(=O)c1ccc2ccccc2c1 (stereo partly specified)
3. COCCCNC(=O)[C@@]1(C)c2ccccc2C(=O)N(Cc2cc(C(F)(F)F)cc(C(F)(F)F)c2)[C@H]1c1ccc(CO)cc1
4. CN(C)CCCNC(=O)[C@@]1(Cc2ccccc2I)c2ccccc2C(=O)N(Cc2ccccc2C(F)(F)F)[C@H]1c1ccc(CO)cc1
5. CC(C)C(O)C1C=CC2C(=O)N(c3ccccc3)C(=O)C2N1Nc1ccc(C#N)cc1 (stereo unspecified)

-0.239
0.0015
-0.204
-0.288
0.0073

Would you mind giving composite z-score for every molecule in the list below?
1. C=CCC(OC(C)=O)[C@@H]1[C@@H](N(Cc2ccc(-c3ccccc3)cc2)C(=O)Cc2ccc(F)cc2)c2cc(OCCCO)ccc2N1C(=O)c1ccc2ccccc2n1 (stereo partly specified)
2. Cc1ccc(S[C@]2(C(=O)NCC(C)C)CC(=O)N(Cc3ccccc3Cl)[C@@H]2c2ccc(CO)cc2)cc1

1. 0.103
2. 0.012
